# Target Under Test: human AT1 receptor (angiotensin II type 1 receptor) (Homo sapiens)
# Construct: full-length receptor transfected in HEK293A cells; AT1 (human)-mCherry plasmid for NFAT assay
# Sequence (P30556 whole entry): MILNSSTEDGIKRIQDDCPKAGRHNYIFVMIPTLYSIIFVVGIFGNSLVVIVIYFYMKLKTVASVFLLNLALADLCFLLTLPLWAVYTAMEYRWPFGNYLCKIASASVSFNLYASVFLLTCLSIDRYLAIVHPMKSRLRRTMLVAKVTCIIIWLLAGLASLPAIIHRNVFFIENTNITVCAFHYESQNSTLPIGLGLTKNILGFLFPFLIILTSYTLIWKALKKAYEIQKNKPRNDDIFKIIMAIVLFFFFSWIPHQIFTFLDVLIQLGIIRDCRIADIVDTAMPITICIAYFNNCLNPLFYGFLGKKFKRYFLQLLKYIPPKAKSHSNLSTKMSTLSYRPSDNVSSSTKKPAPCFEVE
# Assay Method Text: […]-Ang II competition binding, membranes
Quantity Measured: Ki

Measured Ki of NC(CCS)C(=O)O (racemic) : 10.7 µM
